Provenance of the data: ChEMBL document CHEMBL6092203

Molecular target: Protein cereblon/Mitogen-activated protein kinase kinase kinase kinase 1 (Homo sapiens, UniProt Q92918+Q96SW2)
Sequence (Q92918 whole entry): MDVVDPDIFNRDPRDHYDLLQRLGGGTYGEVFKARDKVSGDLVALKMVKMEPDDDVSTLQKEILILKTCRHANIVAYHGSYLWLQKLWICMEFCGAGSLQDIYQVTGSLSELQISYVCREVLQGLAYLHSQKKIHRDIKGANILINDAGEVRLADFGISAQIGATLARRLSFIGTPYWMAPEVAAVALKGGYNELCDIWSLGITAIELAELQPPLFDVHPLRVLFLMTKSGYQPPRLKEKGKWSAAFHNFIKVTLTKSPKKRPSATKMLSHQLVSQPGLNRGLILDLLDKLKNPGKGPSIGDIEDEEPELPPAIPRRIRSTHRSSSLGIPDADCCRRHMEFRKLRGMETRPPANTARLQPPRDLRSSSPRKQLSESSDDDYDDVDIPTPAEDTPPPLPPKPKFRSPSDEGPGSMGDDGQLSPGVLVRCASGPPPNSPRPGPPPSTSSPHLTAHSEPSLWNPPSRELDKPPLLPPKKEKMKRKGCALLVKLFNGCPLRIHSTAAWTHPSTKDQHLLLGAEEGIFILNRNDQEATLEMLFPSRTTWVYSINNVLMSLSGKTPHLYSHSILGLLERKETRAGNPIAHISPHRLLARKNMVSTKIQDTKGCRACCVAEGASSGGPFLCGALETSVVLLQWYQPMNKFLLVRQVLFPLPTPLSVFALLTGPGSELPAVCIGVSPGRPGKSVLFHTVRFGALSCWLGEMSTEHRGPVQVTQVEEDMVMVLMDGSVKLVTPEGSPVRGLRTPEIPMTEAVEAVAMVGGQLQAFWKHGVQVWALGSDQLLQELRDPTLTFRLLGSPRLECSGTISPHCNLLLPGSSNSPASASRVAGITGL
Sequence (Q96SW2 whole entry): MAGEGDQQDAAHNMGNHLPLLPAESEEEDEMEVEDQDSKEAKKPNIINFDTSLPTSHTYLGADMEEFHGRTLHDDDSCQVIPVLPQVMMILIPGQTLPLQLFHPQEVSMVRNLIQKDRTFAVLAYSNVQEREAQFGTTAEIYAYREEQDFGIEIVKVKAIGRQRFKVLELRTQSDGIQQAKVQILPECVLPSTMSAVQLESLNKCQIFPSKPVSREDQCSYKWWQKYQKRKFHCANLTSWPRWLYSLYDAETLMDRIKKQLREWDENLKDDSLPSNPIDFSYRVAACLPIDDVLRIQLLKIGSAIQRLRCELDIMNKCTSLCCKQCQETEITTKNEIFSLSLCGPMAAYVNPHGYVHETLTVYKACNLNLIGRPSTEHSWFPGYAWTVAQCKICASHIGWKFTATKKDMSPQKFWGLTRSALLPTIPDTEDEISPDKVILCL
Assay: PROTAC activity at CRBN/HPK1 in human Jurkat cells incubated for 24 hrs by Western blotting analysis
Format: cell-based
assayMetric: DC50 (nM)
Write the value in nM as a bare number.

Check out these entries, answers already filled in.
molecule: CCN1CCC(n2cc(-c3c[nH]c4ncc(-c5ccc(N6CCC(CC7CCN(C(=O)c8ccc(Cl)c(N9CCC(=O)NC9=O)c8)CC7C)CC6)cc5)nc34)cn2)CC1 (configuration not stated)
DC50, nM: 23.5
//
molecule: CCN1CCC(n2cc(-c3c[nH]c4ncc(-c5ccc(N6CCC(OC7CCN(C(=O)c8ccc(Cl)c(N9CCC(=O)NC9=O)c8)CC7)CC6)c(C)c5)nc34)cn2)CC1
DC50, nM: 29.3
//
molecule: O=C1CCN(c2cc(C(=O)N3CCC(CC4CCN(c5ccc(-c6cnc7[nH]cc(-c8cnn(CC(F)F)c8)c7n6)cn5)CC4)CC3)ccc2Cl)C(=O)N1
DC50, nM: 18.7
//
molecule: CCN1CCC(n2cc(-c3c[nH]c4ncc(-c5ccc(N6CCC(F)(CN7CCN(C(=O)c8ccc(Cl)c(N9CCC(=O)NC9=O)c8)CC7)CC6)cc5)nc34)cn2)CC1
DC50, nM: 230
//
molecule: CCN1CCC(n2cc(-c3c[nH]c4ncc(-c5ccc(N6CCC(OC7CCN(C(=O)c8ccc(Cl)c(N9CCC(=O)NC9=O)c8)CC7)CC6)cc5)nc34)cn2)CC1
DC50, nM: 386
//
molecule: O=C1CCN(c2cc(C(=O)N3CCC(CC4CCN(c5ccc(-c6cnc7[nH]cc(-c8cnn(CCF)c8)c7n6)cn5)CC4)CC3)ccc2Cl)C(=O)N1
DC50, nM: 5.3

Next:
Entry under review: CCN1CCC(n2cc(-c3c[nH]c4ncc(-c5ccc(N6CCC(CN7CCN(C(=O)c8ccc(Cl)c(N9CCC(=O)NC9=O)c8)CC7)CC6)nc5)nc34)cn2)CC1 . Reported DC50? 2.1
